- tested system: Huntingtin (Homo sapiens)
- assay summary: mutant huntingtin-calmodulin interaction inhibitors – biochemical, AlphaScreen, primary screen (AID 1671202)
- assay context: AlphaScreen His-mHTT/GST-CaM binding, luminescence; at 15 µM
About 6,900 (3.6%) of roughly 190,000 compounds were called active. Cut-off read from the data, not from the text of the source: active = inhibition above about 50%; inactive = the rest. Only a selection was taken, and actives are over-represented in it overall.
One label from this list, please: T for active, F for inactive

Task: Tell me the recorded outcome of this test for O=C(O)CCCCCNS(=O)(=O)c1cccc(C(F)(F)F)c1 .
Output: F

Task: Hi team, can someone confirm the assay call for Cc1cccc(-c2cc(C3CCN(S(=O)(=O)c4ccc(C#N)cc4)CC3)[nH]n2)c1 ?
Output: F

Task: Can you look up the reported call for O=C(Nc1nnc(SCc2ccc(C(F)(F)F)cc2)s1)c1cccs1 for me?
Output: F

Task: Field: outcome | Entry: Cc1cccc(-c2cc(C3CCN(C(=O)Cc4ccsc4)CC3)[nH]n2)c1
Output: T

Task: Hi, sorry to bother you, what did the test record for CCC(=O)Oc1ccc2c(C)c(-c3ccccc3)c(=O)oc2c1 ?
Output: F

Task: What is the recorded call for this compound in the test? Cc1cccc(-c2cc(C3CCN(S(=O)(=O)c4cccc(C#N)c4)CC3)[nH]n2)c1
Output: F

Task: Kindly provide the recorded test outcome for the following compound: O=C(NCc1ccc(F)cc1)c1ccc2c(c1)NC(=O)C(N1CCCCC1)S2 (stereo unspecified)
Output: F

Task: Outcome logged for CC(C)Cn1cc2c3c(cccc31)CN(C(=O)Nc1ccc(F)cc1)CC2 in this assay:
Output: F

Task: GET /call?item= Cn1nc(COc2ccccc2)c2c1CCN(C(=O)Nc1ccccc1F)C2 returns the recorded outcome of this test.
Output: F

Task: What call does the record list for CCn1cc2c3c(cccc31)CN(C(=O)Nc1ccc(C)cc1C)CC2 ?
Output: F

Task: Query: recorded result category for N#Cc1ccc(C(=O)N2CCCC(c3ccnc(Nc4ccccc4)n3)C2)cc1 (stereo unspecified) in this test
Output: F

Task: Recorded test call requested for Cn1nc(COc2ccccc2)c2c1CCN(C(=O)c1ccoc1)C2
Output: F

Task: // param item: O=[N+]([O-])c1ccc(C=Nc2ccc(N=Cc3ccc([N+](=O)[O-])cc3)cc2)cc1 ; yields the recorded call
Output: F

Task: Test call for this compound, please: CCCc1cc(C2CCCN2Cc2cc(OC)c(OC)cc2OC)no1 (stereo unspecified)
Output: F

Task: // outcome(item) with item = O=[N+]([O-])c1ccc(C=Nc2cccc(Cl)c2)cc1
Output: F

Task: For CN(C)c1ccc(C(=O)N2CCCC(c3ccnc(Nc4cccc(F)c4)n3)C2)cc1 (stereo unspecified) , what call appears in the results of this test?
Output: T
